biological target: human plasma-derived FIXa (Haematologic Technologies Inc) (human, UniProt P00740 47-191; P00740 227-461); experiment: cell-based or functional assay
Sequence (P00740 47-191, chain 1 of 2): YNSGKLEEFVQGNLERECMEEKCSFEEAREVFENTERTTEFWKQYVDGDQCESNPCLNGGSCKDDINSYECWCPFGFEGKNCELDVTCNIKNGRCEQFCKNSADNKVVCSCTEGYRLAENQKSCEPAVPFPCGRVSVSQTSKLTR
Sequence (P00740 227-461, chain 2 of 2): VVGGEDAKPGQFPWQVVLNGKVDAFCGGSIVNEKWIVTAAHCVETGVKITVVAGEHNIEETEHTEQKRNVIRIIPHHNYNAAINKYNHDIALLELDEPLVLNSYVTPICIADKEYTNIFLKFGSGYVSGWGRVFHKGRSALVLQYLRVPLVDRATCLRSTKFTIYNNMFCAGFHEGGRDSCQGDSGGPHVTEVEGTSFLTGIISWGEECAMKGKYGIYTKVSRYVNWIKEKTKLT
Could you please report measured FXa generation rate at 3.2 nM mAb for the items listed next?
Just so you know, I need the unit written after the number.

The binder identified as mAb1-4857 (antibody, V domains shown) VH: EVQLVESGGGLVQPGRSLKLSCAASGFTFDDYAMHWVRQVPGKGLEWVSGISWRGDIIGYVDSVKGRFTISRDNAKNSLYLQLNSLRAEDTALYYCVKSYGSGSFYNAFDSWGQGTLVTVSS VL: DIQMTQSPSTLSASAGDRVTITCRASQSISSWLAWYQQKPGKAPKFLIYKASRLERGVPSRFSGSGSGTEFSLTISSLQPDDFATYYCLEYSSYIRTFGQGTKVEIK registered its FXa generation rate at 3.2 nM mAb at 302 pM/min

Lab note: measured FXa generation rate at 3.2 nM mAb of mAb1-4861 (antibody, V domains shown) VH: EVQLVESGGGLVQPGRSLKLSCAASGFTFDDYAMHWVRQVPGKGLEWVSGISWNGDNIGYVDSVKGRFTISRDNAKNSLYLQLNSLRAEDTALYYCVKSYGSGSFYNAFDSWGQGTLVTVSS VL: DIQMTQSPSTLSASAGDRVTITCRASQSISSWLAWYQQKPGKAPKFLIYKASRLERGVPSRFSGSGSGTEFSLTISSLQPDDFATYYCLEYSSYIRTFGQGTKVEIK was 434 pM/min

Item: mAb1-4071 (antibody, V domains shown) VH: EVQLVQSGAEVKKPGESLRISCKGSGYSFTPYWIGWVRQMPGKGLEWMGMIDPSDSYTDYGPSFRGHVTISADKSISTAYLQWSSLKASDTAMYYCARVRIREGAFDIWGQGTMVTVSS VL: DIVMTQSPLSLPVTPGEPASISCRSSQRLLHSTGYNYLNWYLQKPGQSPQLLIYLGSRRASGVPDRFSGSGSGTDFTLKISRVEAEDVGVYYCMQALHIPYTFGQGTKLEIK | FXa generation rate at 3.2 nM mAb: 43 pM/min

FXa generation rate at 3.2 nM mAb in this record for mAb1-4707 (antibody, V domains shown) VH: EVQLVESGGGLVQPGRSLRLSCAASGFTFGDYAMHWVRQAPGKGLEWVSGISWVSGSIGYARSVKGRFTISRDNAKNSLYLQMNSLRAEDTALYYCAKGQYDEDAGMDVWGQGTTVTVSS VL: DIQMTQSPSSLSASVGDRVTITCRASQSIRSYLNWYQQKPGKAPKLLIYAASSLQSGVPSRFSGSGSGTDFTLTISSLQPEDFATYYCQQGYPTWTFGGGTKVEIK : 662 pM/min

Entry mAb1-4763 (antibody, V domains shown) VH: EVQLVESGGGLVQPGRSLRLSCAASGFTFGDYAMHWVRQAPGKGLEWVSGISWNSGSIGYAKSVKGRFTISRDNAKNSLYLQMNSLRAEDTALYYCAKGQYDEDAGMDVWGQGTTVTVSS VL: DIQMTQSPSSLSASVGDRVTITCRASQWISSYLNWYQQKPGKAPKLLIYAASSLPSGVPSRFSGSGSGTDFTLTISSLQPEDFATYYCQQGYPTWTFGGGTKVEIK ; FXa generation rate at 3.2 nM mAb = 370 pM/min

For mAb1-4624 (antibody, V domains shown) VH: EVQLVQSGAEVKKPGESLRISCKGSGYRFTSYWIGWVRQMPGKGLEWMGMIDPTDSYTDYGPSFRGHVTISADKSISTAYLQWSSLKASDTAMYYCARVRIMSGAFDIWGQGTMVTVSS VL: DIVMTQSPLSLPVTPGEPASISCRSSQSLLHSTWYNYLNWYLQKPGQSPQLLIYLGSNRASGVPDRFSGSGSGTDFTLKISRVEAEDVGVYYCMQVLHIPYTFGQGTKLEIK the binder record lists FXa generation rate at 3.2 nM mAb as 383 pM/min
